System: MS2 coat protein
Test: apparent KD of MS2 coat protein; designed switch direction (-1 OFF switch, 1 ON switch): -1; higher = weaker reporter binding
Settings: input ligand: none
Classes (apparent KD of MS2 coat protein): low: < 30 nM; moderate: ≥ 30 nM and < 70 nM; high: ≥ 70 nM

[
  {
    "Polymer sequence": "UUAGAUUGAGGAUAUUUGGAUCCGUACAUGAGGAUCACCCAUGUGUGUAGCACAUUCAACGGAGAAGGCGGUUUCU [Eternabot (L1) Solution 73] (Eterna round: R97, puzzle: Exclusion 5)",
    "Class label": "high"
  },
  {
    "Polymer sequence": "AUCAAAGAAUAUCAUAAGCACAUGAGGAUCACCCAUGUGAUGGGUGAGAGCCUGAAAGCCACUUCUGCUCGUCUUAU [Cac Sensor turn off var1 sub9] (Eterna round: R97, puzzle: Sensor, turn-off variant 1)",
    "Class label": "high"
  },
  {
    "Polymer sequence": "UGAUCACAUGAGGAUCACCCAUGUCAGGAUAUCGUCACUGGAGCUGCGGCUCCAGUGACGAGAAGGGACAUAAU [E1/3-A3] (Eterna round: R97, puzzle: Exclusion 1)",
    "Class label": "high"
  },
  {
    "Polymer sequence": "AAUUCACAUGAGGAUCACCCAUGUGAGGAUAUGGAUUCGCUGGCCGUAGCCAGUGGAUCCAGAAGGCGCGUGAU [JL-ex1-4.27] (Eterna round: R97, puzzle: Exclusion 1)",
    "Class label": "moderate"
  },
  {
    "Polymer sequence": "AGAGUGCUGCGAGGAUAUACAUGAGGAUCACCCAUGUAAAUGUGUGAGGCUUUGCCUCACACAAUGUAGAAGGCGCAGUACUCA [Mat - Exclusion NG 2 - Mod of JL - D2] (Eterna round: R96, puzzle: Exclusion NG 2)",
    "Class label": "low"
  },
  {
    "Polymer sequence": "GAAUGAGAGCAGGAUAUCUUAUAAAUGUAUGGAAGAGAAGGGCUCACAUGAGGAUCACCCAUGUGGUCCUAGAU [jl-ex6-4.70 jandersonlee mod] (Eterna round: R97, puzzle: Exclusion 6)",
    "Class label": "moderate"
  },
  {
    "Polymer sequence": "GAGUUAACGUGAGGAAUAUACAUGAGGAUCACCCAUGUUAACAAAUUUAUUGCUCGUCUUAUAACAACAAUUAACUC [Alarm 6 - Jieux - Sensor, turn-off variant 1] (Eterna round: R97, puzzle: Sensor, turn-off variant 1)",
    "Class label": "low"
  },
  {
    "Polymer sequence": "ACAUGAGGAUCACCCAUGUGACCACGAUGGCUGAUGUAGAGCUAGGAUAUGUGUGAAUAUCUAUCACAGAAGGAGCUUGACUGG [Deportation 52 - Jieux - Exclusion NG 3] (Eterna round: R96, puzzle: Exclusion NG 3)",
    "Class label": "low"
  },
  {
    "Polymer sequence": "GGACAUAAAGUCAGGAUAUUAAGGCGACCACGCGAUGAGAAGGGACAUGAGGAUCACCCAUGUGAUUCUCAUCA [Ingebive] (Eterna round: R97, puzzle: Brourd's mod of Exclusion 4)",
    "Class label": "high"
  },
  {
    "Polymer sequence": "GGUACUCAAAGAGUACCAAUACGAACAUGAGGAUCACCCAUGUAGGAUAUGCUACUCAAAGAGUAGCAGAAGGACGUGAACCCU [Far Half Aptamer] (Eterna round: R96, puzzle: Exclusion NG 3)",
    "Class label": "moderate"
  },
  {
    "Polymer sequence": "GACAUCGCAGGAUAUUAGAGUUUUUACAUGAGGAUCACCCAUGUUAAUUGGGUUAAUGUCUAAGAAGGGCGAUGUC [JR_EX5_Sub015] (Eterna round: R97, puzzle: Exclusion 5)",
    "Class label": "moderate"
  },
  {
    "Polymer sequence": "GUCACAUGGGUGUAGAAUCACAUGAGGAUCACCCAUGUGACUAACAAGCUUUUUGCUCGUCUUAUGUCUAUGUGAAG [Stov1/17-A3] (Eterna round: R97, puzzle: Sensor, turn-off variant 1)",
    "Class label": "moderate"
  },
  {
    "Polymer sequence": "AGCGAGGUAGGAUAUACAUGAGGAUCACCCAUGUGCUUGUAUGGCGUGGAACAUCGUAGUAGAAGGGCCGCGCC [EX3 #76] (Eterna round: R97, puzzle: Exclusion 3)",
    "Class label": "low"
  },
  {
    "Polymer sequence": "UUGGUUGUGGUAGGAUAUCCGUUGGAAACCGUCGGAGAAGGACCACAGUCACUGGGUCUUUGUCUGGUGGACUGGAAUCACCAU [pwkr exNG1 F6.21] (Eterna round: R96, puzzle: Exclusion NG 1)",
    "Class label": "high"
  },
  {
    "Polymer sequence": "UAAGGGUGCGUAGGAUAUCGCGGCCGAAUAAAGCGAGAAGGACGCCCUAAUGGGUCGUCCAACAUGAGGAUCACCCAUGUAUAC [Uslaarus] (Eterna round: R96, puzzle: Exclusion NG 1)",
    "Class label": "moderate"
  },
  {
    "Polymer sequence": "AGUCGUAAACAAGUUUCUGACAUGAGGAUCACCCAUGUGAGACUAAAAGUAUCAGAUUGCCUAAUAAGUAGCUCGUC [Eternabot (L2) Solution 29] (Eterna round: R97, puzzle: Sensor, turn-off variant 1)",
    "Class label": "low"
  },
  {
    "Polymer sequence": "UUGCAGUCGUCAGGAUAUAGUAUUACGGCCAUUUAUAUUUUCAUACAUGAGGAUCACCCAUGUCGCUAGAAGGGAUUAUCGAUU [salish99_ExNG2_r04_101] (Eterna round: R96, puzzle: Exclusion NG 2)",
    "Class label": "moderate"
  },
  {
    "Polymer sequence": "AACCAGCGAGGAUAUUGUUGAUAAAACAUGAGGAUCACCCAUGUCACGUGAUCUUCCCAACAAGAAGGUGCACUAA [Xeoratdior] (Eterna round: R97, puzzle: Exclusion 5)",
    "Class label": "high"
  }
]
